# Assay System: AAH1 (toxoplasmic aromatic amino acid hydroxylase 1), catalytic domain (Toxoplasma gondii)
# Construct: catalytic domain, pET-45b (His-tag), expressed in E. coli BL21 GOLD (DE3) pLysS, cobalt resin
# Sequence (S8G872 1-390 limits assumed): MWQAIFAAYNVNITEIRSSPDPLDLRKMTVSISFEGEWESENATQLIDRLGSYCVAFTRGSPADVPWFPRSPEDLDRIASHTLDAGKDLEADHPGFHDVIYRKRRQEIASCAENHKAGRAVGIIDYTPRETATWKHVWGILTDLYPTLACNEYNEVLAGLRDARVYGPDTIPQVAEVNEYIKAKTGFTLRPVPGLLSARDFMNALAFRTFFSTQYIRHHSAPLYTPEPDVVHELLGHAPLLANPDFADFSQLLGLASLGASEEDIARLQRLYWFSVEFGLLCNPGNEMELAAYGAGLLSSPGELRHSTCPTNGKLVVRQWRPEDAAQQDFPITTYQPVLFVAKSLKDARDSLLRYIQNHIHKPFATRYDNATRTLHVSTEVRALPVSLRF
# Protocol Details: coupled NADH oxidation assay (dihydropteridine reductase), […] nm; fit to competitive inhibition equation
# Condition Parameters: read-out: KI ^c

{"Compound": "Cc1nc[nH]c1C(=O)NNC(=S)Nc1ccc([N+](=O)[O-])cc1 [2a]", "Assay System": "AAH1 (toxoplasmic aromatic amino acid hydroxylase 1), catalytic domain (Toxoplasma gondii)", "Ki, nM": 1490}
{"Compound": "Cc1nc[nH]c1C(=O)NNC(=S)Nc1cccc(I)c1 [6a]", "Assay System": "AAH1 (toxoplasmic aromatic amino acid hydroxylase 1), catalytic domain (Toxoplasma gondii)", "Ki, nM": 1260}

---

# Assay System: AAH2 (toxoplasmic aromatic amino acid hydroxylase 2), catalytic domain (Toxoplasma gondii)
# Construct: catalytic domain, pET-45b (His-tag), expressed in E. coli BL21 GOLD (DE3) pLysS, cobalt resin
# Sequence (S8FBW5 156-565): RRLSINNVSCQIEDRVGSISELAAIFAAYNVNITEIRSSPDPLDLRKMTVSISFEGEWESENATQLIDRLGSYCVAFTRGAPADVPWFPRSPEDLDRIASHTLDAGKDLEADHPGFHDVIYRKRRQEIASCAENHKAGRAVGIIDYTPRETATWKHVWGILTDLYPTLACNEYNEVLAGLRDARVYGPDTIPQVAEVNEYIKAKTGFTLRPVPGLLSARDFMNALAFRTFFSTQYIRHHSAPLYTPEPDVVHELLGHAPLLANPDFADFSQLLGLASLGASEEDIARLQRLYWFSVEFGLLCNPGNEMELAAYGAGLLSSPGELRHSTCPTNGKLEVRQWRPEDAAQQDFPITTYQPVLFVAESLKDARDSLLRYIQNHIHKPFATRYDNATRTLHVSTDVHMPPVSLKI
# Protocol Details: coupled NADH oxidation assay (dihydropteridine reductase), […] nm; fit to competitive inhibition equation
# Condition Parameters: read-out: KI ^c
Measured Ki by item
Observable: Ki (µM)

{"Molecule": "Cc1nc[nH]c1C(=O)NNC(=S)Nc1ccc([N+](=O)[O-])cc1 [2a]", "Result Number": 3.69}
{"Molecule": "Cc1nc[nH]c1C(=O)NNC(=S)Nc1cccc(I)c1 [6a]", "Result Number": 3.23}

Taken from paper PMC8955734.
